Assay: PSAC antagonists in infected red cells, primary screen, cell-based, P. falciparum Indochina, OD700, 2 h (AID 1155);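 further: lysis reports solute entry through the parasite surface anion channel PSAC; channel blockers reduce lysis of infected cells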
Conditions: P. falciparum Indochina infected erythrocytes, osmotic lysis OD700; higher = more signal, called active from +8 up or from −8 down
Activity calls are given as the source filed them.
test readout: z-score

Reported z-score of COCCOC(=O)N1C(=O)[C@@]2(c3cc(C#CCCO)ccc31)[C@H](C(N)=O)[C@H]1C(=O)O[C@H](c3ccccc3)[C@H](c3ccccc3)N1[C@@H]2c1ccc(OCCO)cc1 : 5.49 (inactive)

z-score reported for this molecule C=CC[C@H](OC(=O)Nc1ccc(SC)cc1)c1ccc(OCCO)cc1 : 17.3 (active)

Note to self: z-score recorded for COc1ccc(C#Cc2ccc3c(c2)[C@]2(C(=O)N3)[C@H](C(=O)Nc3nc4ccccc4s3)[C@H]3C(=O)O[C@H](c4ccccc4)[C@H](c4ccccc4)N3[C@@H]2c2ccccc2OCCO)cc1 was 2.07 (inactive)

Lab book: z-score of O=C1OCCC=C[C@H]2OC34C=CCN(c5ccc(Cl)cc5)C(=O)[C@H]3N(CCCCCCO)C(=O)[C@@H]4C12 (stereo partly specified) noted as 0.138 (inactive)

The value of z-score measured for the molecule COCCOC(=O)N1C(=O)[C@@]2(c3cc(C#Cc4ccc(OC)cc4)ccc31)[C@H](C(=O)NC[C@H](O)c1ccccc1)[C@H]1C(=O)O[C@H](c3ccccc3)[C@H](c3ccccc3)N1[C@@H]2c1ccc(OCCO)cc1 turned out to be 1.45 (inactive)

Please fill in: z-score reported for CC(=O)N1CC(C(O)C2C=CC3C(=O)NC(=O)C3N2Nc2ccc(Cl)cc2Cl)c2ccccc21 (stereo unspecified) = 1.36 (inactive)

Briefly, z-score measured for C[C@]1(C(=O)O)c2ccccc2C(=O)N(Cc2ccc(OC(F)(F)F)cc2)[C@H]1c1ccc(CO)cc1 : 0.789 (inactive)

The molecule identified as CCCCC(=C=CC[C@H](O)c1ccc(OCCO)cc1)C[C@H](O)COCc1ccccc1 registered its z-score at 3.18 (inactive)

Just so you know, measured z-score for CCCC=C(CCC)[C@@H](NS(=O)(=O)c1cccc2cccnc12)c1ccc(-c2ccccc2)cc1 came out at 0.451 (inactive)

Per the records, this molecule ( C=C(CCCC)C(=O)CC[C@@H](OC(=O)c1cccnc1)c1ccc(OCCO)cc1 ) has z-score equal to 4.63 (inactive)

// recorded z-score for COc1ccc([Si](C)(C)[C@H]2[C@H](CCO)O[C@@]3(C(=O)N(Cc4ccc(N5C(=O)c6ccccc6Oc6ccccc65)cc4)c4ccccc43)[C@@H]2C)cc1 : 2.83 (inactive)

Please fill in: z-score reported for C=CCN1C(=O)[C@@]2(O[C@@H](CCO)[C@H]([Si](C)(C)c3ccc(OC)cc3)[C@H]2C)c2cc(N3CCOC3=O)ccc21 = 12.6 (active)

Measured z-score of COCCOC(=O)N1C(=O)[C@@]2(c3ccccc31)[C@H](c1ccccc1OCCO)N1[C@H](c3ccccc3)[C@H](c3ccccc3)OC(=O)[C@H]1[C@@H]2C(=O)N1CCCCCCC1 : 0.612 (inactive)

Lab note: measured z-score of COc1ccc(NC(=O)O[C@H]2[C@@H]3OC(=O)[C@H](Cc4cccc(Br)c4)C/C=C/C[C@@H](Cc4cccc(Br)c4)C(=O)O[C@H]3[C@@H](OC)O[C@@H]2CO)cc1 was -0.173 (inactive)

# z-score (molecule: CC(=O)NCCCC[C@@H]1NC(=O)[C@@H]2C[C@H](C(=O)NCCCCCCN)[C@H](c3cccc(OCCO)c3)N2C1=O ) is 0.503 (inactive)

Reported z-score ( CC(CO)N1C(=O)[C@@H]2[C@H]3C(=O)OCC=C[C@H]3OC23C=CCN(c2ccc(Cl)cc2)C(=O)[C@@H]13 (stereo partly specified) ) = -0.219 (inactive)
